Test system: 926638-142-R-J1-PDC complex spheroid viability
assay explanation: Anticancer human tumor 926638-142-R-J1-PDC patient-derived endometrial carcinoma cell line growth inhibition [POLQ]
run conditions: second compound 1 µM; first compound 3.16 µM; hits give low values
Recorded viability, T/C for the following molecules
Expressed in %, but write only the number.

>  <molecule>
CC1COCCN1c1cc(C2(S(C)(=N)=O)CC2)nc(-c2ccnc3[nH]ccc23)n1 (centres undefined) + Nc1ccc(C#CCN(C(=O)Cc2ncc(C(F)(F)F)cc2C(F)(F)F)c2ccc(F)cc2)nn1

>  <target desc>
926638-142-R-J1-PDC complex spheroid viability

>  <viability, T/C (%)>
64.4

$$$$
>  <molecule>
CNCc1ccc(-c2[nH]c3cc(F)cc4c3c2CCNC4=O)cc1 + Cc1cccc(N(C)C(=O)C2C(O)CCN2c2nc(C)cc(C(F)(F)F)c2C#N)c1

>  <target desc>
926638-142-R-J1-PDC complex spheroid viability

>  <viability, T/C (%)>
81

$$$$
>  <molecule>
O=c1[nH]cc(F)c(=O)[nH]1 + Nc1ccc(C#CCN(C(=O)Cc2ncc(C(F)(F)F)cc2C(F)(F)F)c2ccc(F)cc2)nn1

>  <target desc>
926638-142-R-J1-PDC complex spheroid viability;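 also: spheroids exposed to drugs for one week before readout; percent viability relative to DMSO vehicle control wells set as 100%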

>  <viability, T/C (%)>
77.7

$$$$
>  <molecule>
C#Cc1c(F)ccc2cc(O)cc(-c3ncc4c(N5CC6CCC(C5)N6)nc(OCC56CCCN5CC(F)C6)nc4c3F)c12 (centres undefined) + COC1C(OC(N)=O)C(O)C(Oc2ccc3c(O)c(NC(=O)c4ccc(O)c(CC=C(C)C)c4)c(=O)oc3c2C)OC1(C)C

>  <target desc>
926638-142-R-J1-PDC complex spheroid viability;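 also: spheroids exposed to drugs for one week before readout; percent viability relative to DMSO vehicle control wells set as 100%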

>  <viability, T/C (%)>
72.2

$$$$
>  <molecule>
COc1ccc([C@@H](O)c2cc(-c3ncnc4cc(N5CCOCC5)ccc34)c(F)cc2Cl)nn1 + Cc1cccc(N(C)C(=O)C2C(O)CCN2c2nc(C)cc(C(F)(F)F)c2C#N)c1

>  <target desc>
926638-142-R-J1-PDC complex spheroid viability;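 also: spheroids exposed to drugs for one week before readout; percent viability relative to DMSO vehicle control wells set as 100%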

>  <viability, T/C (%)>
14.7

$$$$
>  <molecule>
CC1COCCN1c1cc(-c2ccnn2C)c2ccnc(-c3ccn[nH]3)c2n1 (centres undefined) + Cc1cccc(N(C)C(=O)C2C(O)CCN2c2nc(C)cc(C(F)(F)F)c2C#N)c1

>  <target desc>
926638-142-R-J1-PDC complex spheroid viability;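 also: spheroids exposed to drugs for one week before readout; percent viability relative to DMSO vehicle control wells set as 100%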

>  <viability, T/C (%)>
12.2

$$$$

Find the recorded viability, T/C belonging to CCc1cc2c(N3CCc4c(cc(Cn5ccnc5)cc4-c4cn(C)nc4C(F)(F)F)C3=O)cc(C)nc2c(OC)n1 + COC1C(OC(N)=O)C(O)C(Oc2ccc3c(O)c(NC(=O)c4ccc(O)c(CC=C(C)C)c4)c(=O)oc3c2C)OC1(C)C and report it.
28.8

Please report the recorded viability, T/C for CC1COCCN1c1cc(C2(O)CC3CCC(C2)O3)c2cnn(-c3ccn[nH]3)c2n1 (centres undefined) + COC1C(OC(N)=O)C(O)C(Oc2ccc3c(O)c(NC(=O)c4ccc(O)c(CC=C(C)C)c4)c(=O)oc3c2C)OC1(C)C .
7.07

Endpoint output: viability, T/C of COc1cc2cc(C(=O)CCC(=O)O)sc2cc1OC + Nc1ccc(C#CCN(C(=O)Cc2ncc(C(F)(F)F)cc2C(F)(F)F)c2ccc(F)cc2)nn1 . Value?
112

Any idea what its viability, T/C is? The molecule is CCCS(=O)(=O)Nc1ccc(F)c(C(=O)c2c[nH]c3ncc(-c4ccc(Cl)cc4)cc23)c1F + COC1C(OC(N)=O)C(O)C(Oc2ccc3c(O)c(NC(=O)c4ccc(O)c(CC=C(C)C)c4)c(=O)oc3c2C)OC1(C)C
98.8

Sample CC(C)n1c(=O)n(C)c2cnc3cc(F)c(-c4ccc(OCCCN5CCCCC5)nc4)cc3c21 + Nc1ccc(C#CCN(C(=O)Cc2ncc(C(F)(F)F)cc2C(F)(F)F)c2ccc(F)cc2)nn1 — what was its viability, T/C?
83

Please give the measured viability, T/C for this molecule: CCc1cc2c(N3CCc4c(cc(Cn5ccnc5)cc4-c4cn(C)nc4C(F)(F)F)C3=O)cc(C)nc2c(OC)n1 + Nc1ccc(C#CCN(C(=O)Cc2ncc(C(F)(F)F)cc2C(F)(F)F)c2ccc(F)cc2)nn1
43.5

Quick check: viability, T/C of CC1COCCN1c1cc(-c2ccnn2C)c2ccnc(-c3ccn[nH]3)c2n1 (centres undefined) + COC1C(OC(N)=O)C(O)C(Oc2ccc3c(O)c(NC(=O)c4ccc(O)c(CC=C(C)C)c4)c(=O)oc3c2C)OC1(C)C ?
11.3

Report viability, T/C for C#Cc1c(F)ccc2cc(O)cc(-c3ncc4c(N5CC6CCC(C5)N6)nc(OCC56CCCN5CC(F)C6)nc4c3F)c12 (centres undefined) + Cc1cccc(N(C)C(=O)C2C(O)CCN2c2nc(C)cc(C(F)(F)F)c2C#N)c1 please.
70.9
